Give measured log10 of Ki for each item. Keep answers brief.
- System name: Melanocortin receptor 4 (Homo sapiens, UniProt P32245)
- Sequence (P32245 whole entry): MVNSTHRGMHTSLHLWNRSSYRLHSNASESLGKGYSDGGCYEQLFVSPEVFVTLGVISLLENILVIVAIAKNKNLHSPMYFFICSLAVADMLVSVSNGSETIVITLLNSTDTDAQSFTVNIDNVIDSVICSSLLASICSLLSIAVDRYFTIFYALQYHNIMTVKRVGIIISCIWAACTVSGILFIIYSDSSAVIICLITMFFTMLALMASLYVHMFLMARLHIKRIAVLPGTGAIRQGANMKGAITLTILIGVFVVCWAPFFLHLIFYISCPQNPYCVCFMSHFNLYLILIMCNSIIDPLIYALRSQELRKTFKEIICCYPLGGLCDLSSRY
- Experimental protocol: Displacement of [125I]NDP-MSH from human MC4R expressed in HEK293 cells
- Type: cell-based
Log scale reminder: Ki in µM, then log10 taken.

Below: 6 molecules and their reported log10 of Ki.
CC(C)[C@H](N)c1cccc(F)c1N1CCN(C(=O)[C@H]2CCO[C@@H]2c2ccc(Cl)cc2)CC1 : 0.04
CC(C)[C@H](N)c1cccc(F)c1N1CCN(C(=O)[C@@H]2CCO[C@@H]2c2ccc(Cl)cc2)CC1 : 0.32
CC(C)C[C@H](NC(=O)CCN(C)C)c1cc(Cl)ccc1N1CCN(C(=O)[C@H]2CCO[C@@H]2c2ccc(Cl)cc2)CC1 : -1.13
CC(C)C[C@H](N)c1cc(C(F)(F)F)ccc1N1CCN(C(=O)[C@H]2CCO[C@@H]2c2ccc(Cl)cc2)CC1 : -0.48
CC(C)C[C@H](NC(=O)CCN(C)C)c1cc(C(F)(F)F)ccc1N1CCN(C(=O)[C@H]2C[S+]([O-])C[C@@H]2c2ccc(Cl)cc2)CC1 (stereo not given in full) : -0.64
CNCC(=O)N[C@@H](CC(C)C)c1cc(C(F)(F)F)ccc1N1CCN(C(=O)[C@H]2CS(=O)(=O)C[C@@H]2c2ccc(Cl)cc2)CC1 : -0.74

Go through the list and state log10 of Ki for each entry.
1. Cc1ccc(N2CCN(C(=O)[C@H]3OCC[C@@H]3c3ccc(Cl)cc3)CC2)c([C@@H](NC(=O)CCN(C)C)C(C)C)c1
2. CC(C)C[C@H](N)c1cc(C(F)(F)F)ccc1N1CCN(C(=O)[C@H]2C[S+]([O-])C[C@@H]2c2ccc(Cl)cc2)CC1 (stereo not given in full)
3. CC(C)[C@H](NC(=O)CCN(C)C)c1cccc(F)c1N1CCN(C(=O)C2COCC2c2ccc(Cl)cc2)CC1 (stereo not given in full)
4. CC(C)[C@H](NC(=O)CCN(C)C)c1cccc(F)c1N1CCN(C(=O)[C@@H]2CS(=O)(=O)C[C@H]2c2ccc(Cl)cc2)CC1
5. CC(C)C[C@H](N)c1cc(C(F)(F)F)ccc1N1CCN(C(=O)[C@H]2CS(=O)(=O)C[C@@H]2c2ccc(Cl)cc2)CC1
6. CC(C)C[C@H](NC(=O)CCN(C)C)c1cc(C(F)(F)F)ccc1N1CCN(C(=O)C2C(=O)OCC2c2ccc(Cl)cc2)CC1 (stereo not given in full)

1. -1.37
2. -0.92
3. -1.40
4. -1.43
5. -1.42
6. -0.54

###

- System name: Melanocortin receptor 4 (Homo sapiens)
- Experimental protocol: Binding affinity at human MC4R
Metric: Ki (nM)
Answers are plain numbers, in nM.

Query: Ki; subject: CC(C)C[C@H](N)c1cc(C(F)(F)F)ccc1N1CCN(C(=O)C(C)(C)Cc2ccc(Cl)cc2)CC1
810

###

- System name: Melanocortin receptor 4 (Homo sapiens, UniProt P32245)
- Experimental protocol: Displacement of [125I]NDP-MSH from human MC4R expressed in HEK293 cells
- Format: cell-based
Metric: Ki (nM)
Answers are plain numbers, in nM.

CC(C)C[C@H](NC(=O)[C@@H](C)N)c1cc(C(F)(F)F)ccc1N1CCN(C(=O)[C@H]2CSC[C@@H]2c2ccc(Cl)cc2)CC1 : 130

Go through the list and state Ki for each entry.
1. CC(C)[C@H](N)c1cccc(F)c1N1CCN(C(=O)C2COCC2c2ccc(Cl)cc2)CC1 (some centres not stated)
2. CC(C)C[C@H](NC(=O)CCN(C)C)c1cc(C(F)(F)F)ccc1N1CCN(C(=O)C2COCC2c2ccc(Cl)cc2)CC1 (some centres not stated)
3. CC(C)C[C@H](NC(=O)CCN(C)C)c1cc(C(F)(F)F)ccc1N1CCN(C(=O)[C@H]2CSC[C@@H]2c2ccc(Cl)cc2)CC1
4. CC(C)C[C@H](NC(=O)CCN(C)C)c1cc(C(F)(F)F)ccc1N1CCN(C(=O)[C@H]2CCO[C@@H]2c2ccc(Cl)cc2)CC1
5. CNCCC(=O)N[C@@H](CC(C)C)c1cc(C(F)(F)F)ccc1N1CCN(C(=O)[C@H]2CS(=O)(=O)C[C@@H]2c2ccc(Cl)cc2)CC1
6. CC(C)C[C@H](N)c1cc(Cl)ccc1N1CCN(C(=O)[C@H]2CCO[C@@H]2c2ccc(Cl)cc2)CC1

1. 790
2. 71
3. 130
4. 200
5. 190
6. 280
